experimentalTarget: T1, biotin-labeled human PD-1 Fc protein (human, biotin-labeled (sites not given))
T1 construct: also called PD-1-Fc-biotin
assayNotes: competition ELISA: blocks biotin PD-1-Fc binding to coated Nivolumab (competitor)
valueKind: pIC50
API: returns pIC50 as number; meaning -log10 of concentration in mol/L.

Give pIC50 for the following binder: mouse anti-PD-1 monoclonal antibody D1F2 (antibody, mouse IgG1, kappa, V domains shown, Purified from hybridoma; Constant regions tied only generically to 'mouse antibodies') VH: EVMLVESGGGLVKPGGSLKLSCAASGFTFSSYTMSWVRQTPEKRLEWVATISGGGSNIYYPDSVEGRFTVSRDNARNTLYLHMSSLRSEDTALYYCVLNYAYAMDYWGQGTSVTVSS VL: DIQMTQTTSSLSASLGDRVTISCRASQDISNFLNWYQQKPDGTVKLLIYYTSRLQSGVPSRFSGTGSGTDYSLTISNLEQEDLATYFCQQGSSLPWTFGGGTKLEIKR
8.85

Give pIC50 for the following binder: mouse anti-PD-1 monoclonal antibody C1E2 (antibody, mouse IgG1, kappa, V domains shown, Purified from hybridoma; Constant regions tied only generically to 'mouse antibodies') VH: QVQLQQSGAELVRPGTSVKISCKASGYTFTNYWLGWVKQRPGHGLEWIGDIYPGGGYTNYNENFKGKATLTADTSSSTAYMQLSSLTSEDSAVFFCARGYGTNYWYFDVWGAGTTVTVSS VL: SIVMTQTPKFLLVSAGDRVTITCKASQSVSNDVAWYQQKPGQSPKLLIYYAFHRYTGVPDRFTGSGYGTDFTFTISTVQAEDLAVYFCQQDYSSPYTFGGGTKLEIKR
8.83

Give pIC50 for the following binder: mouse anti-PD-1 monoclonal antibody D1A1 (antibody, mouse IgG1, kappa, V domains shown, Purified from hybridoma; Constant regions tied only generically to 'mouse antibodies') VH: EVMLVESGGGLVKPGGSLKLSCAASGFTFSNYAMSWVRQTPEKRLEWVATISGGGGNIYYPDSVKGRFTISRDNARNTLYLQMSSLRSEDTALYYCASPYANYVWYLDVWGAGTTVTVSS VL: DIQMTQTTSSLSASLGDRVTISCRASQDISNYLNWYQQKPDGTVKLLIYYTSRLHSGVPSRFSGSGSGTDFSLTISNLEEEDIATYFCQQSNALPWTFGGGTKLEIKR
8.89
